Origin of measurements: paper PMC10739260

Molecular target: Lpd protein (Mycobacterium tuberculosis, UniProt P9WHH9)
Construct: made in house
Sequence (P9WHH9 whole entry): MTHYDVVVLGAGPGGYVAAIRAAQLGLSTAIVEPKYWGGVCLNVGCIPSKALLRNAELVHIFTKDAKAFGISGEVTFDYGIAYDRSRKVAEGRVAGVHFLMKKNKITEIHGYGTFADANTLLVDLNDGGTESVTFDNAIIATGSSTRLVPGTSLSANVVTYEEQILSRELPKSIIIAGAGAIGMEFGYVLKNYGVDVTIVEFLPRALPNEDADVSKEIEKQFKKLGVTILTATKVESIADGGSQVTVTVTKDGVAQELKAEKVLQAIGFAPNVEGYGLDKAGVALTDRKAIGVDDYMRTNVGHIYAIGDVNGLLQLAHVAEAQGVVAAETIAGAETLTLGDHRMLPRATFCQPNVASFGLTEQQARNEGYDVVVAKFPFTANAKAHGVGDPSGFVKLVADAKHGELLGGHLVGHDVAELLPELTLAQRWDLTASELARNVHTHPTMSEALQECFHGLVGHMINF
Assay: Surface plasmon resonance (SPR) binding to immobilized Lpd
Conditions: 25 °C, analyte line 013537-NADH
attribute_measured: Kd (nM)
I only need the number, in nM, no unit after it.

Look at this molecule and give its reported Kd. CC(=O)Nc1cccc(NC(=O)CN(C)S(=O)(=O)c2cc(C)cc(C(F)F)c2)c1 [1 (TDI-13537)]
291

* * *

Molecular target: Lpd protein (Mycobacterium tuberculosis)
Construct: made in house
Test: Surface plasmon resonance (SPR) binding to immobilized Lpd
Details: 25 °C, 1:1 Langmuir model, analyte line 013537
attribute_measured: Kd
Give the number first and the unit second.

Look at this compound and give its reported Kd. CC(=O)Nc1cccc(NC(=O)CN(C)S(=O)(=O)c2cc(C)cc(C(F)F)c2)c1
241 nM

* * *

Target: PDH complex (Mycobacterium tuberculosis, UniProt P9WHH9)
Assay: PDH complex inhibition
Type: biochemical
attribute_measured: IC50 (nM)
I only need the number, in nM, no unit after it.

Look at this molecule and give its reported IC50. Cc1cc(S(=O)(=O)N2CCC[C@H]2C(=O)Nc2ccn(C)c(=O)c2)c2[nH]ncc2c1
190

* * *

Molecular target: Mtb Lpd (Mycobacterium tuberculosis, UniProt P9WHH9)
Construct: made in house
Sequence (P9WHH9 whole entry): as above
Assay: Lpd enzyme assay (spectrophotometric, DTNB, lipoamide, NADH)
Format: biochemical
Conditions: compound at 10 μM; read-out: LPD %inh ± SD at 10 μM
Below: a set of entries, each annotated with reported inhibition at 10 µM.
I only need the number, in %, no unit after it.

The following molecules have reported results that may help.
>  <molecule>
CN(CC(=O)Nc1cccc(F)c1)S(=O)(=O)c1cccc2c1NC(=O)CO2 [Compound Z1601662276]

>  <inhibition at 10 µM / %>
12.7

$$$$
>  <molecule>
CCN(CC(=O)Nc1ccc(N2CCOCC2)cc1)S(=O)(=O)c1ccc(F)c(C(F)(F)F)c1 [Compound Z819807984]

>  <inhibition at 10 µM / %>
68.9

$$$$
>  <molecule>
CCN(CC(=O)Nc1cccc(OC)c1)S(=O)(=O)c1cccc2c1NC(=O)CO2 [Compound Z1601661851]

>  <inhibition at 10 µM / %>
18.5

$$$$

Look at this molecule and give its reported inhibition at 10 µM. CCOC(=O)c1c(C)n[nH]c1S(=O)(=O)N(C)CC(=O)Nc1ccc(F)cc1 [Compound Z740306332]
9.6

Another molecule: CC(=O)Nc1cccc(NC(=O)CN(C)S(=O)(=O)c2cccc(C(F)F)c2)c1 [Compound Z1765676493]
69.1

Another molecule: COC(=O)c1cccc(NC2CCN(C(=O)c3cc(C)cc4cn[nH]c34)CC2)c1 [Compound Z1464810837]
15.7

* * *

Target: Mtb Lpd (Mycobacterium tuberculosis)
Construct: made in house
Experiment: Lpd enzyme assay (spectrophotometric, DTNB, lipoamide, NADH)
Type: biochemical
Settings: dose response 100 to 0.005 μM; values marked * from one replicate
Below: a set of entries, each annotated with reported IC50.
I only need the number, in µM, no unit after it.

Look at this molecule and give its reported IC50. CCOC(=O)c1c(C)n[nH]c1S(=O)(=O)N(C)CC(=O)Nc1ccc(F)cc1
100

Another molecule: CCN(CC(=O)Nc1ccc(N2CCOCC2)cc1)S(=O)(=O)c1cc(C)c(F)c(C(F)(F)F)c1
0.37

Another molecule: CCN(CC(=O)Nc1cccc(OC)c1)S(=O)(=O)c1cccc2c1NC(=O)CO2
30

Another molecule: CCN(CC(=O)Nc1ccc(N2CCOCC2)cc1)S(=O)(=O)c1ccc(F)c(C(F)(F)F)c1
5

Another molecule: COC(=O)c1cccc(NC2CCN(C(=O)c3cc(C)cc4cn[nH]c34)CC2)c1
30

Another molecule: CN(CC(=O)Nc1cccc(F)c1)S(=O)(=O)c1cccc2c1NC(=O)CO2
100

Another molecule: CC(=O)Nc1cccc(NC(=O)CN(C)S(=O)(=O)c2cccc(C(F)F)c2)c1
3.5
